- System: KM mice
- assay.procedure: Test for drug-induced disappearance of righting reflex in mice
- Format: in vivo
- protocol.conditions: 30 mg/kg, single rapid bolus via tail vein
readout.name: Latency (min)
Report the value in min with no unit label.

Below are worked cases with known answers.
COC(=O)CC[C@@H]1N=C(c2ccccc2F)c2cc(Br)ccc2-n2c(SCC3CC3)nnc21 = 0.69
COC(=O)CC[C@@H]1N=C(c2ccccc2Cl)c2cc(Cl)ccc2-n2c(SC(=O)N3CCN(C)CC3)nnc21 = 0.52
COC(=O)CC[C@@H]1N=C(c2ccccc2F)c2cc(Br)ccc2-n2c(SCCCN3CCN(CCO)CC3)nnc21 = 0.84
COC(=O)CC[C@@H]1N=C(c2ccccn2)c2cc(Br)ccc2-n2c(SCc3ccncc3)nnc21 = 0.16

q: What does the data say about its Latency? Entry: COC(=O)CC[C@@H]1N=C(c2ccccc2Cl)c2cc(Br)ccc2-n2c(SCCCN(C)C)nnc21
a: 0.53

q: What does the data say about its Latency? Entry: COC(=O)CC[C@@H]1N=C(c2ccccc2F)c2cc(Br)ccc2-n2c(SCc3ccncc3)nnc21
a: 0.19

q: What does the data say about its Latency? Entry: COC(=O)CC[C@@H]1N=C(c2ccccc2)c2ccccc2-n2c1n[nH]c2=S
a: 0.73

q: What does the data say about its Latency? Entry: COC(=O)CC[C@@H]1N=C(c2ccccc2Cl)c2cc(Cl)ccc2-n2c(SCCO)nnc21
a: 0.73

q: What does the data say about its Latency? Entry: COC(=O)CC[C@@H]1N=C(c2ccccc2F)c2cc(Br)ccc2-n2c(SCCN3CCCCC3)nnc21
a: 0.23

q: What does the data say about its Latency? Entry: COC(=O)CC[C@@H]1N=C(c2ccccc2F)c2cc(Br)ccc2-n2c(SCCN3CCC(F)(F)CC3)nnc21
a: 0.42

q: What does the data say about its Latency? Entry: CCSc1nnc2n1-c1ccc(Br)cc1C(c1ccccn1)=N[C@H]2CCC(=O)OC
a: 0.13

q: What does the data say about its Latency? Entry: COC(=O)CC[C@@H]1N=C(c2ccccn2)c2cc(Br)ccc2-n2c(S)nnc21
a: 0.48

q: What does the data say about its Latency? Entry: COC(=O)CC[C@@H]1N=C(c2ccccc2F)c2cc(Cl)ccc2-n2c(SCN3CCN(c4ccccc4)CC3)nnc21
a: 0.42

q: What does the data say about its Latency? Entry: COC(=O)CC[C@@H]1N=C(c2ccccc2Cl)c2cc([N+](=O)[O-])ccc2-n2c(SC(C)=O)nnc21
a: 0.37

q: What does the data say about its Latency? Entry: COC(=O)CC[C@@H]1N=C(c2ccccc2)c2cc(Cl)ccc2-n2c(SC)nnc21
a: 1.13

###

- System: KM mice
- assay.procedure: Test for drug-induced disappearance of righting reflex in mice
- Format: in vivo
- protocol.conditions: 60 mg/kg, single rapid bolus via tail vein
readout.name: Latency (min)
Report the value in min with no unit label.

Below are worked cases with known answers.
COC(=O)CC[C@@H]1N=C(c2ccccc2Cl)c2cc(Br)ccc2-n2c(SC(C)=O)nnc21 [Compound 39] = 0.19
COC(=O)CC[C@@H]1N=C(c2ccccc2Cl)c2cc([N+](=O)[O-])ccc2-n2c(SCCN)nnc21 [Compound 37] = 0.21
COC(=O)CC[C@@H]1N=C(c2ccccc2F)c2cc([N+](=O)[O-])ccc2-n2c(SCCCN3CCN(CCO)CC3)nnc21 [Compound 68] = 0.68
COC(=O)CC[C@@H]1N=C(c2ccccc2F)c2cc(Br)ccc2-n2c(SC3CCN(C)CC3)nnc21 [Compound 64] = 0.99
CCSc1nnc2n1-c1ccc(Cl)cc1C(c1ccccc1F)=N[C@H]2CCC(=O)OC [Compound 11] = 0.83

q: Please state recorded Latency (tested on KM mice) of CCCSc1nnc2n1-c1ccc([N+](=O)[O-])cc1C(c1ccccc1F)=N[C@H]2CCC(=O)OC [Compound 16]
a: 0.28

q: Please state recorded Latency (tested on KM mice) of COC(=O)CC[C@@H]1N=C(c2ccccc2)c2cc(Br)ccc2-n2c(SCCCN(C)C)nnc21 [Compound 109]
a: 0.97

q: Please state recorded Latency (tested on KM mice) of CCOC(=O)CC[C@@H]1N=C(c2ccccc2Cl)c2cc(Br)ccc2-n2c(SC)nnc21 [Compound 43]
a: 0.84

q: Please state recorded Latency (tested on KM mice) of COC(=O)CC[C@@H]1N=C(c2ccccc2Cl)c2cc(Cl)ccc2-n2c(SC)nnc21 [Compound 23]
a: 0.25

q: Please state recorded Latency (tested on KM mice) of COC(=O)CC[C@@H]1N=C(c2ccccc2F)c2cc(Br)ccc2-n2c(SCCO)nnc21 [Compound 18]
a: 0.33

q: Please state recorded Latency (tested on KM mice) of COC(=O)CC[C@@H]1N=C(c2ccccc2)c2cc(Cl)ccc2-n2c(SC)nnc21 [Compound 102]
a: 0.39

q: Please state recorded Latency (tested on KM mice) of CCN(CC)CCSc1nnc2n1-c1ccc(Br)cc1C(c1ccccc1Cl)=N[C@H]2CCC(=O)OC [Compound 85]
a: 0.67

q: Please state recorded Latency (tested on KM mice) of COC(=O)CC[C@@H]1N=C(c2ccccc2Cl)c2cc(Br)ccc2-n2c(SCCO)nnc21 [Compound 33]
a: 0.21

q: Please state recorded Latency (tested on KM mice) of COC(=O)CC[C@@H]1N=C(c2ccccc2F)c2cc([N+](=O)[O-])ccc2-n2c(SCCN3CCOCC3)nnc21 [Compound 53]
a: 0.42

q: Please state recorded Latency (tested on KM mice) of COC(=O)CC[C@@H]1N=C(c2ccccc2Cl)c2cc([N+](=O)[O-])ccc2-n2c(SCOP(=O)(O)O)nnc21 [Compound 113]
a: 0.58

###

Measured Latency accompanies every entry in the list below.
- System: KM mice
- assay.procedure: Test for drug-induced disappearance of righting reflex in mice
- Format: in vivo
- protocol.conditions: 30 mg/kg, single rapid bolus via tail vein

Below are worked cases with known answers.
COC(=O)CC[C@@H]1N=C(c2ccccc2F)c2cc([N+](=O)[O-])ccc2-n2c(SCCN)nnc21 = 0.58 min
COC(=O)CC[C@@H]1N=C(c2ccccc2)c2cc(Cl)ccc2-n2c(SCCN3CCOCC3)nnc21 = 0.63 min
COC(=O)CC[C@@H]1N=C(c2ccccc2F)c2cc(Cl)ccc2-n2c(SCC3CC3)nnc21 = 0.65 min

# ---- query molecule ----
q: What does the data say about its Latency? Entry: COC(=O)CC[C@@H]1N=C(c2ccccn2)c2cc(Br)ccc2-n2c(SCC3CC3)nnc21
a: 0.11 min

###

Measured Latency accompanies every entry in the list below.
- Test system: KM mice
- assay.procedure: Test for drug-induced disappearance of righting reflex in mice
- Type: in vivo
- protocol.conditions: 30 mg/kg, single rapid bolus via tail vein
Report the value in min with no unit label.

Below are worked cases with known answers.
COC(=O)CC[C@@H]1N=C(c2ccccc2Cl)c2cc(Cl)ccc2-n2c(SCC3CC3)nnc21 [Compound 75] = 0.51
COC(=O)CC[C@@H]1N=C(c2ccccc2F)c2cc(Br)ccc2-n2c(SCCN3CCN(C)CC3)nnc21 [Compound 61] = 0.82
COC(=O)CC[C@@H]1N=C(c2ccccc2Cl)c2cc(Cl)ccc2-n2c(SCCn3ccnc3)nnc21 [Compound 138] = 0.27

# ---- query compound ----
q: Please state recorded Latency (tested on KM mice) of C#CCSc1nnc2n1-c1ccc(Br)cc1C(c1ccccc1Cl)=N[C@H]2CCC(=O)OC [Compound 79]
a: 0.57

###

- System: GABA-activated Cl− current (GABAA receptor) in HEK 293T cells
- assay.procedure: Effect of drugs on GABA-activated current in cells by cell patch clamp
- Format: cell-based
- protocol.conditions: −60 mV, corresponding concentration 20 μM
readout.name: Enhancement percentage Emax for 2 μM GABA current (within 3-30 μM)

Below are worked cases with known answers.
CCSc1nnc2n1-c1ccc(Cl)cc1C(c1ccccc1Cl)=N[C@H]2CCC(=O)OC = 249% (20 μM)
COC(=O)CC[C@@H]1N=C(c2ccccc2Cl)c2cc(Br)ccc2-n2c(SC)nnc21 = 282% (20 μM)
COC(=O)CC[C@@H]1N=C(c2ccccc2F)c2cc([N+](=O)[O-])ccc2-n2c(SCCN3CCOCC3)nnc21 = 285% (20 μM)

# ---- query molecule ----
q: What does the data say about its Enhancement percentage Emax for 2 μM GABA current (within 3-30 μM)? Entry: COC(=O)CC[C@@H]1N=C(c2ccccc2F)c2cc(Br)ccc2-n2c(SCCN3CCOCC3)nnc21
a: 293% (20 μM)

###

Measured IC50 accompanies every entry in the list below.
- target.under.test: voltage-gated potassium channel hERG (Homo sapiens (Human), UniProt Q12809)
- Sequence (Q12809 whole entry, looked up): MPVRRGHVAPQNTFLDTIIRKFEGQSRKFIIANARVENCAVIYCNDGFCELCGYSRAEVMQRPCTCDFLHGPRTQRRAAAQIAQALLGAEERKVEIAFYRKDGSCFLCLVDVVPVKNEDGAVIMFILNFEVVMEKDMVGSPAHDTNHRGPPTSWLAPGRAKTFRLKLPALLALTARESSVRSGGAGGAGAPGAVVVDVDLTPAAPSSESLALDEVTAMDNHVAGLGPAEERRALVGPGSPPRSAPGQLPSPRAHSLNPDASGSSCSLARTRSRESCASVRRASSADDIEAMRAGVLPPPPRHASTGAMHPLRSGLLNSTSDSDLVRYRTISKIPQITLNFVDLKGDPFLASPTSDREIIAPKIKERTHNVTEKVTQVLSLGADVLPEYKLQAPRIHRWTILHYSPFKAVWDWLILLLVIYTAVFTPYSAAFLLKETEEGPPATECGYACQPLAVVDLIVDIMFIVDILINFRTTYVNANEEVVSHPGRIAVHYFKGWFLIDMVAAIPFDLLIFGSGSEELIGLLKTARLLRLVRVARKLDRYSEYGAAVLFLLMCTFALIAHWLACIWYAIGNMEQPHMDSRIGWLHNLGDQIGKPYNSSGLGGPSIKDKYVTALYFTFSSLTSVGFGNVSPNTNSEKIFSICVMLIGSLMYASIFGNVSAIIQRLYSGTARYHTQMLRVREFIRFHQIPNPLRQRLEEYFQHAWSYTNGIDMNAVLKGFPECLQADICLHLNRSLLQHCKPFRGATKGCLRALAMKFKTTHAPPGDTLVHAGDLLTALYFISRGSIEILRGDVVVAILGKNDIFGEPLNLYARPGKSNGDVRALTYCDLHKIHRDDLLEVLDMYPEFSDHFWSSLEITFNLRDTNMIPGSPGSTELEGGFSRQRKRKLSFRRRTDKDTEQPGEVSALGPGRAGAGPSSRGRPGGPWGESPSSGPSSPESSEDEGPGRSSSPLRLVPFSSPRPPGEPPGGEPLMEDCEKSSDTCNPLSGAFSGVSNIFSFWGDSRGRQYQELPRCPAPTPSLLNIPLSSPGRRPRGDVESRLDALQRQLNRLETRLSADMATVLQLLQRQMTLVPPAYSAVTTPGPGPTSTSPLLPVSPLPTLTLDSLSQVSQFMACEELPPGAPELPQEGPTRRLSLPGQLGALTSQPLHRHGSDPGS
- assay.procedure: Predictor hERG fluorescence polarization assay
- Assay type: binding
Report the value in µM with no unit label.

Cc1ncc2n1-c1ccc(Cl)cc1C(c1ccccc1F)=NC2 [Midazolam, reference compound] = 7.09

# ---- query compound ----
q: What does the data say about its IC50? Entry: COC(=O)CC[C@@H]1N=C(c2ccccn2)c2cc(Br)ccc2-n2c(SCc3ccncc3)nnc21
a: 72.5
